system: P388 mouse leukemia cells; conditions: 92 h
Where a SMILES comes first, the peptide text is derived from it. [ ]: non-standard residue; d: D form. The star is where a group is joined. NHCH2CH2OH = OCCN*; For = O=C*
property.name: cell viability/% (%)
Write the value in % as a bare number.

-- ask Given the compound CNC(=O)C[C@@H](NC(=O)[C@H](Cc1c[nH]c2ccccc12)NC(=O)[C@@H](CC(C)C)NC(=O)[C@H](Cc1c[nH]c2ccccc12)NC(=O)[C@H](NC(=O)[C@H](Cc1c[nH]c2ccccc12)NC(=O)[C@H](NC(=O)[C@@H](NC(=O)[C@@H](CC(C)C)NC(=O)[C@H](C)NC(=O)[C@H](NC(=O)[C@H](C)NC(=O)CNC(=O)[C@@H](NC=O)C(C)C)C(C)C)C(C)C)C(C)C)C(C)C)C(=O)N[C@@H](Cc1c[nH]c2ccccc12)C(=O)NCCO [compound 6329] (For-VGA[dV]A[dL]V[dV]W[dV]W[dL]W[dD](NHMe)W-NHCH2CH2OH) , write its reported cell viability/%.
-- reply 43.5

* * *

Record form. Attribute: cell viability/%. Fill in for each entry.
tested on: P388 mouse leukemia cells; details: 92 h
Where a SMILES comes first, the peptide text is derived from it. [ ]: non-standard residue; d: D form. The star is where a group is joined. NHCH2CH2OH = OCCN*; For = O=C*
Write the value in % as a bare number.

-- ask Given the compound CC(C)[C@H](NC=O)C(=O)NCC(=O)N[C@@H](C)C(=O)N[C@@H](C(=O)N[C@@H](C)C(=O)N[C@@H](C(=O)N[C@H](C(=O)N[C@@H](C(=O)N[C@@H](Cc1c[nH]c2ccccc12)C(=O)N[C@@H](C(=O)N[C@@H](Cc1c[nH]c2ccccc12)C(=O)N[C@@H](C(=O)N[C@@H](Cc1c[nH]c2ccccc12)C(=O)N[C@@H](C(=O)N[C@@H](Cc1c[nH]c2ccccc12)C(=O)NCCO)C(C)C)C(C)C)C(C)C)C(C)C)C(C)C)C(C)C)[C@H](C)O [compound 8545] (For-VGA[dT]A[dV]V[dV]W[dV]W[dV]W[dV]W-NHCH2CH2OH) , write its reported cell viability/%.
-- reply 83.1

-- ask Given the compound CC(C)C[C@@H](NC(=O)[C@@H](NC(=O)[C@H](NC(=O)[C@H](C)NC(=O)[C@H](NC(=O)[C@H](C)NC(=O)CNC(=O)[C@@H](NC=O)C(C)C)[C@H](C)O)C(C)C)C(C)C)C(=O)N[C@@H](Cc1c[nH]c2ccccc12)C(=O)N[C@@H](C(=O)N[C@@H](Cc1c[nH]c2ccccc12)C(=O)N[C@@H](C(=O)N[C@@H](Cc1c[nH]c2ccccc12)C(=O)N[C@@H](C(=O)N[C@@H](Cc1c[nH]c2ccccc12)C(=O)NCCO)C(C)C)C(C)C)C(C)C [compound 9799] (For-VGA[dT]A[dV]V[dL]W[dV]W[dV]W[dV]W-NHCH2CH2OH) , write its reported cell viability/%.
-- reply 100.0

-- ask Given the compound CNC(=O)C[C@@H](NC(=O)[C@H](C)NC(=O)[C@@H](CC(C)C)NC(=O)[C@H](C)NC(=O)CNC(=O)[C@@H](NC=O)C(C)C)C(=O)N[C@H](C(=O)N[C@@H](C(=O)N[C@@H](Cc1c[nH]c2ccccc12)C(=O)N[C@H](CC(C)C)C(=O)N[C@@H](Cc1c[nH]c2ccccc12)C(=O)N[C@@H](C(=O)N[C@@H](Cc1c[nH]c2ccccc12)C(=O)N[C@H](CC(C)C)C(=O)N[C@@H](Cc1c[nH]c2ccccc12)C(=O)NCCO)C(C)C)C(C)C)C(C)C [compound 9352] (For-VGA[dL]A[dD](NHMe)V[dV]W[dL]W[dV]W[dL]W-NHCH2CH2OH) , write its reported cell viability/%.
-- reply 100.0

-- ask Given the compound CC(C)C[C@@H](NC(=O)[C@H](C)NC(=O)CNC(=O)[C@@H](NC=O)C(C)C)C(=O)N[C@@H](C)C(=O)N[C@H](CC(C)C)C(=O)N[C@H](C(=O)N[C@@H](C(=O)N[C@@H](Cc1c[nH]c2ccccc12)C(=O)N[C@@H](C(=O)N[C@@H](Cc1c[nH]c2ccccc12)C(=O)N[C@H](CC(C)C)C(=O)N[C@@H](Cc1c[nH]c2ccccc12)C(=O)N[C@H](CC(C)C)C(=O)N[C@@H](Cc1c[nH]c2ccccc12)C(=O)NCCO)C(C)C)C(C)C)C(C)C [compound 7198] (For-VGA[dL]A[dL]V[dV]W[dV]W[dL]W[dL]W-NHCH2CH2OH) , write its reported cell viability/%.
-- reply 16.1

* * *

test system: P388 mouse leukemia cells; details: 92 h
Where a SMILES comes first, the peptide text is derived from it. [ ]: non-standard residue; d: D form. The star is where a group is joined. NHCH2CH2OH = OCCN*; For = O=C*
Record form. Attribute: cell viability/%. Fill in for each entry.
Write the value in % as a bare number.

-- ask Given the molecule CNC(=O)C[C@@H](NC(=O)[C@H](Cc1c[nH]c2ccccc12)NC(=O)[C@@H](CC(C)C)NC(=O)[C@H](Cc1c[nH]c2ccccc12)NC(=O)[C@H](NC(=O)[C@H](Cc1c[nH]c2ccccc12)NC(=O)[C@H](NC(=O)[C@@H](NC(=O)[C@@H](CC(C)C)NC(=O)[C@H](C)NC(=O)[C@@H](CC(C)C)NC(=O)[C@H](C)NC(=O)CNC(=O)[C@@H](NC=O)C(C)C)C(C)C)C(C)C)C(C)C)C(=O)N[C@@H](Cc1c[nH]c2ccccc12)C(=O)NCCO [compound 9609] (For-VGA[dL]A[dL]V[dV]W[dV]W[dL]W[dD](NHMe)W-NHCH2CH2OH) , write its reported cell viability/%.
-- reply 100.0

-- ask Given the molecule CC(C)C[C@@H](NC(=O)[C@H](C)NC(=O)CNC(=O)[C@@H](NC=O)C(C)C)C(=O)N[C@@H](C)C(=O)N[C@@H](C(=O)N[C@H](C(=O)N[C@H](CC(C)C)C(=O)N[C@@H](Cc1c[nH]c2ccccc12)C(=O)N[C@@H](C(=O)N[C@@H](Cc1c[nH]c2ccccc12)C(=O)N[C@H](CC(C)C)C(=O)N[C@@H](Cc1c[nH]c2ccccc12)C(=O)N[C@@H](C(=O)N[C@@H](Cc1c[nH]c2ccccc12)C(=O)NCCO)[C@H](C)O)C(C)C)C(C)C)C(C)C [compound 8906] (For-VGA[dL]A[dV]V[dL]W[dV]W[dL]W[dT]W-NHCH2CH2OH) , write its reported cell viability/%.
-- reply 79.1

-- ask Given the molecule CNC(=O)C[C@@H](NC(=O)[C@@H](NC(=O)[C@H](NC(=O)[C@H](C)NC(=O)[C@H](NC(=O)[C@H](C)NC(=O)CNC(=O)[C@@H](NC=O)C(C)C)C(C)C)C(C)C)C(C)C)C(=O)N[C@@H](Cc1c[nH]c2ccccc12)C(=O)N[C@H](CC(C)C)C(=O)N[C@@H](Cc1c[nH]c2ccccc12)C(=O)N[C@H](CC(C)C)C(=O)N[C@@H](Cc1c[nH]c2ccccc12)C(=O)N[C@@H](C(=O)N[C@@H](Cc1c[nH]c2ccccc12)C(=O)NCCO)C(C)C [compound 5771] (For-VGA[dV]A[dV]V[dD](NHMe)W[dL]W[dL]W[dV]W-NHCH2CH2OH) , write its reported cell viability/%.
-- reply 79.3

-- ask Given the molecule CC(C)C[C@@H](NC(=O)[C@H](C)NC(=O)[C@H](NC(=O)[C@H](C)NC(=O)CNC(=O)[C@@H](NC=O)C(C)C)[C@H](C)O)C(=O)N[C@H](C(=O)N[C@@H](C(=O)N[C@@H](Cc1c[nH]c2ccccc12)C(=O)N[C@H](CC(C)C)C(=O)N[C@@H](Cc1c[nH]c2ccccc12)C(=O)N[C@H](CC(C)C)C(=O)N[C@@H](Cc1c[nH]c2ccccc12)C(=O)N[C@@H](C(=O)N[C@@H](Cc1c[nH]c2ccccc12)C(=O)NCCO)C(C)C)C(C)C)C(C)C [compound 5522] (For-VGA[dT]A[dL]V[dV]W[dL]W[dL]W[dV]W-NHCH2CH2OH) , write its reported cell viability/%.
-- reply 100.0

* * *

system: Streptococcus pyogenes SSI-9; assay: Antibacterial activity assay of bead-derived peptides (three concentrations); assay type: cell-based; parameters: key: +++: inhibition by the 640-fold diluted peptide solution; ++: inhibition by the 160-fold diluted solution; +: inhibition by the 40-fold diluted solution; -: no inhibition; conditions: S. pyogenes, bead-derived peptide solution, three concentrations
Where a SMILES comes first, the peptide text is derived from it. [ ]: non-standard residue; d: D form. The star is where a group is joined. NHCH2CH2OH = OCCN*; For = O=C*
property.name: antibacterial activity

In the examples that follow, each entry is paired with its recorded antibacterial activity.
molecule="CC(C)C[C@@H](NC(=O)[C@H](C)NC(=O)CNC(=O)[C@@H](NC=O)C(C)C)C(=O)N[C@@H](C)C(=O)N[C@@H](C(=O)N[C@H](C(=O)N[C@H](CC(C)C)C(=O)N[C@@H](Cc1c[nH]c2ccccc12)C(=O)N[C@@H](C(=O)N[C@@H](Cc1c[nH]c2ccccc12)C(=O)N[C@@H](C(=O)N[C@@H](Cc1c[nH]c2ccccc12)C(=O)N[C@@H](C(=O)N[C@@H](Cc1c[nH]c2ccccc12)C(=O)NCCO)C(C)C)C(C)C)C(C)C)C(C)C)C(C)C [compound 8796] (For-VGA[dL]A[dV]V[dL]W[dV]W[dV]W[dV]W-NHCH2CH2OH)" observed_value=+
molecule="CC(C)C[C@@H](NC(=O)[C@H](C)NC(=O)CNC(=O)[C@@H](NC=O)C(C)C)C(=O)N[C@@H](C)C(=O)N[C@@H](C(=O)N[C@H](C(=O)N[C@@H](C(=O)N[C@@H](Cc1c[nH]c2ccccc12)C(=O)N[C@@H](C(=O)N[C@@H](Cc1c[nH]c2ccccc12)C(=O)N[C@H](CC(C)C)C(=O)N[C@@H](Cc1c[nH]c2ccccc12)C(=O)N[C@@H](C(=O)N[C@@H](Cc1c[nH]c2ccccc12)C(=O)NCCO)C(C)C)C(C)C)C(C)C)C(C)C)C(C)C [compound 11438] (For-VGA[dL]A[dV]V[dV]W[dV]W[dL]W[dV]W-NHCH2CH2OH)" observed_value=++
molecule="CC(C)C[C@@H](NC(=O)[C@H](C)NC(=O)CNC(=O)[C@@H](NC=O)C(C)C)C(=O)N[C@@H](C)C(=O)N[C@H](CC(C)C)C(=O)N[C@H](C(=O)N[C@@H](C(=O)N[C@@H](Cc1c[nH]c2ccccc12)C(=O)N[C@@H](C(=O)N[C@@H](Cc1c[nH]c2ccccc12)C(=O)N[C@H](CC(C)C)C(=O)N[C@@H](Cc1c[nH]c2ccccc12)C(=O)N[C@H](CC(C)C)C(=O)N[C@@H](Cc1c[nH]c2ccccc12)C(=O)NCCO)C(C)C)C(C)C)C(C)C [compound 7198] (For-VGA[dL]A[dL]V[dV]W[dV]W[dL]W[dL]W-NHCH2CH2OH)" observed_value=+
molecule="CC(C)C[C@@H](NC(=O)[C@H](C)NC(=O)CNC(=O)[C@@H](NC=O)C(C)C)C(=O)N[C@@H](C)C(=O)N[C@@H](C(=O)N[C@H](C(=O)N[C@@H](C(=O)N[C@@H](Cc1c[nH]c2ccccc12)C(=O)N[C@@H](C(=O)N[C@@H](Cc1c[nH]c2ccccc12)C(=O)N[C@H](CC(C)C)C(=O)N[C@@H](Cc1c[nH]c2ccccc12)C(=O)N[C@@H](C(=O)N[C@@H](Cc1c[nH]c2ccccc12)C(=O)NCCO)C(C)C)C(C)C)C(C)C)C(C)C)C(C)C [compound 5393] (For-VGA[dL]A[dV]V[dV]W[dV]W[dL]W[dV]W-NHCH2CH2OH)" observed_value=+
molecule="CC(C)C[C@@H](NC(=O)[C@H](Cc1c[nH]c2ccccc12)NC(=O)[C@H](NC(=O)[C@H](Cc1c[nH]c2ccccc12)NC(=O)[C@H](NC(=O)[C@H](Cc1c[nH]c2ccccc12)NC(=O)[C@H](NC(=O)[C@@H](NC(=O)[C@H](NC(=O)[C@H](C)NC(=O)[C@H](NC(=O)[C@H](C)NC(=O)CNC(=O)[C@@H](NC=O)C(C)C)C(C)C)C(C)C)C(C)C)C(C)C)C(C)C)C(C)C)C(=O)N[C@@H](Cc1c[nH]c2ccccc12)C(=O)NCCO [compound 12606] (For-VGA[dV]A[dV]V[dV]W[dV]W[dV]W[dL]W-NHCH2CH2OH)" observed_value=-
molecule="CNC(=O)C[C@@H](NC(=O)[C@H](C)NC(=O)[C@@H](CC(C)C)NC(=O)[C@H](C)NC(=O)CNC(=O)[C@@H](NC=O)C(C)C)C(=O)N[C@H](C(=O)N[C@H](CC(C)C)C(=O)N[C@@H](Cc1c[nH]c2ccccc12)C(=O)N[C@H](CC(C)C)C(=O)N[C@@H](Cc1c[nH]c2ccccc12)C(=O)N[C@@H](C(=O)N[C@@H](Cc1c[nH]c2ccccc12)C(=O)N[C@@H](C(=O)N[C@@H](Cc1c[nH]c2ccccc12)C(=O)NCCO)C(C)C)C(C)C)C(C)C [compound 7119] (For-VGA[dL]A[dD](NHMe)V[dL]W[dL]W[dV]W[dV]W-NHCH2CH2OH)" observed_value=-
molecule="CC(C)C[C@@H](NC(=O)[C@H](C)NC(=O)[C@H](NC(=O)[C@H](C)NC(=O)CNC(=O)[C@@H](NC=O)C(C)C)C(C)C)C(=O)N[C@H](C(=O)N[C@H](CC(C)C)C(=O)N[C@@H](Cc1c[nH]c2ccccc12)C(=O)N[C@@H](C(=O)N[C@@H](Cc1c[nH]c2ccccc12)C(=O)N[C@H](CC(C)C)C(=O)N[C@@H](Cc1c[nH]c2ccccc12)C(=O)N[C@@H](C(=O)N[C@@H](Cc1c[nH]c2ccccc12)C(=O)NCCO)C(C)C)C(C)C)C(C)C [compound 9742] (For-VGA[dV]A[dL]V[dL]W[dV]W[dL]W[dV]W-NHCH2CH2OH)" observed_value=+

Moving on to another molecule below.
-- ask Given the molecule CNC(=O)C[C@@H](NC(=O)[C@@H](NC(=O)[C@@H](CC(C)C)NC(=O)[C@H](C)NC(=O)[C@@H](CC(C)C)NC(=O)[C@H](C)NC(=O)CNC(=O)[C@@H](NC=O)C(C)C)C(C)C)C(=O)N[C@@H](Cc1c[nH]c2ccccc12)C(=O)N[C@H](CC(C)C)C(=O)N[C@@H](Cc1c[nH]c2ccccc12)C(=O)N[C@H](CC(C)C)C(=O)N[C@@H](Cc1c[nH]c2ccccc12)C(=O)N[C@H](CC(C)C)C(=O)N[C@@H](Cc1c[nH]c2ccccc12)C(=O)NCCO [compound 2444] (For-VGA[dL]A[dL]V[dD](NHMe)W[dL]W[dL]W[dL]W-NHCH2CH2OH) , write its reported antibacterial activity.
-- reply -
